# Test system: Tyrosine-protein phosphatase non-receptor type 1 (Homo sapiens, UniProt P18031)
# Sequence (P18031 whole entry): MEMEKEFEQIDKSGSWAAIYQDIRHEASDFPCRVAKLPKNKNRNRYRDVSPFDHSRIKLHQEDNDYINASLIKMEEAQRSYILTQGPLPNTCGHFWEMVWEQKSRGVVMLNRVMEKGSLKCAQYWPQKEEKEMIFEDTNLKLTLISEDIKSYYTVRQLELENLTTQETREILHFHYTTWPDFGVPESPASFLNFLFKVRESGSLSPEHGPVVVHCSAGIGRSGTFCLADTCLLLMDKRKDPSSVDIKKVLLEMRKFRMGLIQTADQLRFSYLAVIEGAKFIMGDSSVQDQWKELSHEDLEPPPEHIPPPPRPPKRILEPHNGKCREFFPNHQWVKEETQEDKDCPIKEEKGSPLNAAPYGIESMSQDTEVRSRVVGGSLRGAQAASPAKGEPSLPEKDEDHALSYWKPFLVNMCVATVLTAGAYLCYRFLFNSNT
# Experimental details: Inhibition of PTP1B (unknown origin)-mediated pNPP hydrolysis to 4-nitrophenol after 60 mins by spectrophotometric analysis
Exercise: state measured Ki for each of the molecules provided.
Give bare numbers, in µM.

See these solved cases before continuing.
INSERT INTO measurements (molecule, test_system, measure_name, value_units, value) VALUES
  ('CC(C)Oc1ccc(NS(=O)(=O)C(Cc2ccc(NC(=O)C(=O)O)cc2)c2nc3ccccc3o2)cc1 (centres undefined)', 'Tyrosine-protein phosphatase non-receptor type 1 (Homo sapiens, UniProt P18031)', 'Ki', 'µM', 92),
  ('O=C(O)C(=O)Nc1ccc(CC(c2nc3ccccc3o2)S(=O)(=O)N(Cc2ccccc2C(F)(F)F)Cc2ccccc2C(F)(F)F)cc1 (centres undefined)', 'Tyrosine-protein phosphatase non-receptor type 1 (Homo sapiens, UniProt P18031)', 'Ki', 'µM', 6.8),
  ('CCCCNS(=O)(=O)C(Cc1ccc(NC(=O)C(=O)O)cc1)c1nc2ccccc2o1 (centres undefined)', 'Tyrosine-protein phosphatase non-receptor type 1 (Homo sapiens, UniProt P18031)', 'Ki', 'µM', 82.4);

**Q:** Which Ki is reported for this molecule? O=C(O)C(=O)Nc1ccc(CC(c2nc3ccccc3o2)S(=O)(=O)NC(=O)c2ccccc2)cc1 (centres undefined)
**A:** 125
